List of melting point values.
Observed Property: melting point

>>> df
                                    compound        reading
 0           CCN(CC)S(=O)(=O)c1ccc(Cl)c(N)c1    84 to 88 °C
 1                                 Nc1nonc1I    90 to 92 °C
 2        COCCCNc1c(N)n(CC(C)C)c(=O)[nH]c1=O  179 to 181 °C
 3                  Cn1cnn(-c2ccc(N)cc2)c1=O  159 to 161 °C
 4                  O=C(O)CCCOc1cccc(Cl)c1Cl  121 to 123 °C
 5                       Cc1ccc(NC(N)=S)cc1C  184 to 186 °C
 6                 Cn1ncc2c(O)c(C(=O)O)cnc21  193 to 195 °C
 7                       COc1nc(N(C)C)sc1C=O    69 to 71 °C
 8  CC1Sc2ccc(C(=O)O)cc2NC1=O (stereo not drawn)  230 to 232 °C
 9                           CCCC(C)=CC(=O)O    33 to 35 °C
10        Cc1cc(C(=O)O)c(N)c([N+](=O)[O-])c1  249 to 251 °C
11                         Cc1cc(Cl)cc(N)c1I    48 to 50 °C
12  CNCC(O)COc1ccc(C(F)(F)F)cc1 (stereo not drawn)    85 to 87 °C
13           Cc1nc2cc(C(=O)O)ccc2n1-c1ccccc1  210 to 212 °C
14    O=C(O)c1ccn(-c2cccc([N+](=O)[O-])c2)n1  230 to 232 °C
15                           COc1ccsc1C(N)=O  147 to 149 °C
16                Nc1nnc(CCc2ccccc2)c(=O)n1N  243 to 245 °C
17               O=C(O)CCn1nc(-c2cccs2)oc1=O  146 to 148 °C
18                      CNS(=O)(=O)c1ccccc1N    53 to 55 °C
19                       CNC(=O)c1cccc(N)c1C  178 to 180 °C
20                        Nc1nc(-c2ccsc2)ns1  172 to 174 °C
21                CCOc1cccc(F)c1[N+](=O)[O-]    34 to 36 °C
22                    OCc1ccc(OCC(F)(F)F)cc1    64 to 66 °C
23               NC(=S)c1cccc(NC(=O)C2CC2)c1  181 to 183 °C
24              N#CCCn1cc(C=O)c(-c2ccccc2)n1    74 to 76 °C
25                NS(=O)(=O)c1ccc(C(=O)O)nc1  194 to 196 °C
26                           COc1nc(N)n[nH]1  165 to 167 °C
27  COc1ccc(C(=O)O)cc1S(=O)(=O)N(C)Cc1ccccc1  180 to 182 °C
28          O=C(O)c1ccc([N+](=O)[O-])c(Br)n1  179 to 181 °C
29  COc1ccc(C2C(C(N)=O)CC(=O)N2C)cc1 (stereo not drawn)  208 to 210 °C
30   CS(=O)(=O)C1CCCCC1=O (stereo not drawn)    69 to 71 °C
31                Nc1ccccc1S(=O)(=O)N1CCOCC1  114 to 116 °C
32              Cc1ccc(O)c(S(=O)(=O)N(C)C)c1    76 to 78 °C
33  CC(C(=O)O)S(=O)(=O)Cc1cccc(Br)c1 (stereo not drawn)  109 to 111 °C
34                Nc1ccc(OCc2cn3ccccc3n2)cc1  146 to 148 °C
35  CC(C)CC(C(=O)O)N1CCCCC1=O (stereo not drawn)  182 to 184 °C
36                    Cc1sc2ncn(N)c(=O)c2c1C  131 to 133 °C
37                  CCc1ccc(N2CCC(=O)CC2)cc1    43 to 45 °C
38  CC(C)CC(N)C(=O)Nc1nccs1 (stereo not drawn)   99 to 101 °C
39  CCC(C)(C)NC(=O)C(Br)C(C)C (stereo not drawn)  132 to 134 °C
40            Cc1nn(-c2ccccc2)c(C)c1SCC(=O)O  148 to 150 °C
41                      Nn1c(S)nnc1-c1cccnc1  190 to 192 °C
42                       O=C(O)c1ccc2ncoc2c1  242 to 244 °C
43                     CSc1ccc(C)c(C(=O)O)c1  128 to 130 °C
44                              Cc1nc(N)oc1C    64 to 66 °C
45                      O=c1cc2c(n[nH]1)CCC2  209 to 211 °C
46                 Cc1cccc(C2(C(=O)O)CCC2)c1    95 to 97 °C
47               CS(=O)(=O)c1ccccc1NC(=O)CCl  118 to 120 °C
48                      O=C(O)C=Cc1ccc(Br)o1  125 to 135 °C
49      COc1ccc(NS(=O)(=O)c2ccc(C)c(N)c2)cc1  127 to 129 °C
50                      N#CCC(=O)c1ccc(F)cc1    84 to 88 °C
51                    Cc1ccc(Nc2nnc(S)s2)cc1  219 to 221 °C
52          Cc1cc(OCc2ccc(C(=O)NN)cc2)ccc1Cl    78 to 80 °C
53           Cc1cc(COc2ccc(C=O)cc2)oc1C(=O)O  179 to 181 °C
54                Cc1cc(N)n(-c2cccc(Br)c2)n1  145 to 147 °C
55               O=C(O)CCC(=O)N1CCOc2ccccc21  109 to 111 °C
56              Cn1ncc([N+](=O)[O-])c1C(=O)O  159 to 161 °C
57                       Cn1cnc2cc(C#N)ccc21  139 to 141 °C
